experiment_description: Cytotoxicity determination in HepG2.2.15 cells (CCK-8 cell viability)
Type: cell-based
condition_notes: human, 6 days treatment, CCK-8 assay, highest concentration 100 uM
Mark True only for CC50 at 6 days values smaller than 40 µM; exact matches and larger values are False.

CCOC(=O)C1=C(CN2CC(F)(F)[C@@H]3[C@H]2CN(C(=O)C(F)(F)F)N3CCC(C)(C)C(=O)O)NC(c2nccs2)=N[C@H]1c1cccc(F)c1C (stereo in doubt) [Compound 71]; True
CCOC(=O)C1=C(CN2CC(F)(F)[C@H]3[C@@H]2CCN3[C@@H](C)C(=O)O)NC(c2nccs2)=N[C@H]1c1cccc(F)c1C (single isomer, unassigned) [Compound 26F]; False
CCOC(=O)C1=C(CN2CC(F)(F)[C@H]3[C@@H]2C(=O)N(CC(C)(C)C(=O)O)N3C)NC(c2nccs2)=N[C@H]1c1cccc(F)c1C (single isomer, unassigned) [Compound 88]; False
CCOC(=O)C1=C(CN2CC(F)(F)[C@@H]3CN(C(N)=O)C[C@@H]32)NC(c2nccs2)=N[C@H]1c1cccc(F)c1C (single isomer, unassigned) [Compound 35]; True
CCOC(=O)C1=C(CN2CC(F)(F)[C@@H]3[C@H]2CON3CC(C)(C)C(=O)O)NC(c2nccs2)=N[C@@H]1c1ccc(F)nc1C (single isomer, unassigned) [Compound 172]; False
CCOC(=O)C1=C(CN2CC(F)(F)[C@H]3[C@@H]2CCN3CCC(C)(C)C(=O)O)NC(c2nccs2)=N[C@H]1c1cccc(F)c1Cl (single isomer, unassigned) [Compound 145]; True
CCOC(=O)C1=C(CN2CC(F)(F)[C@@H]3[C@H]2CON3CCC(C)(C)C(=O)O)NC(c2nccs2)=N[C@@H]1c1ccc(F)nc1C (single isomer, unassigned) [Compound 166]; False
CCOC(=O)C1=C(CN2CC(F)(F)[C@H]3[C@@H]2CCN3CC(C)(C)C(=O)NS(C)(=O)=O)NC(c2nccs2)=N[C@H]1c1cccc(F)c1C (single isomer, unassigned) [Compound 109]; True
CCOC(=O)C1=C(CN2CC(F)(F)[C@@H]3[C@H]2CN(CC)N3CCC(C)(C)C(=O)O)NC(c2nccs2)=N[C@H]1c1cccc(F)c1C (single isomer, unassigned) [Compound 90]; True

Prompt: Consider the compound CCOC(=O)C1=C(CN2C[C@H](F)[C@H]3[C@@H]2CCN3CC(C)(C)C(=O)O)NC(c2nccs2)=N[C@H]1c1cccc(F)c1C (single isomer, unassigned) [Compound 11B] . Is its CC50 at 6 days strictly less than 40 µM?
Completion: True

====

System: HBV
experiment_description: Anti-HBV activity in HepG2.2.15 cells (HBV DNA in culture medium by qPCR)
Format: cell-based
condition_notes: Hepatitis B virus, HepG2.2.15, 144 h, HepG2.2.15 cells, 6 days treatment, HBV DNA in culture medium quantified by real-time PCR; read-out: EC50
The following compounds are listed with their measured pEC50 values.
Reminder that pEC50 means the negative base-10 logarithm of the concentration expressed in mol/L.

CCOC(=O)C1=C(CN2CC(F)(F)[C@H]3[C@@H]2CCN3CC(C)(C)C(=O)O)NC(c2nccs2)=N[C@@H]1c1ccc(F)nc1C (single isomer, unassigned); 9.22

Prompt: Return reported pEC50. Input compound: CCOC(=O)C1=C(CN2CC(F)(F)[C@H]3[C@@H]2CCN3CC(C)(C)C(=O)O)NC(c2nccs2)=N[C@H]1c1cccc(F)c1C (relative stereo)
Completion: 8.89

Prompt: Return reported pEC50. Input compound: CCOC(=O)C1=C(CN2CC(F)(F)[C@H]3[C@@H]2CCN3CC2(C(=O)O)CC2)NC(c2nccs2)=N[C@H]1c1cccc(F)c1C (relative stereo) [Compound 38A]
Completion: 8.82

Prompt: Return reported pEC50. Input compound: CCOC(=O)C1=C(CN2CC(F)(F)[C@H]3[C@@H]2CC(=O)N3CCCC(C)(C)C(=O)O)NC(c2nccs2)=N[C@H]1c1cccc(F)c1C (single isomer, unassigned)
Completion: 7.20

Prompt: Return reported pEC50. Input compound: CCOC(=O)C1=C(CN2CC(F)C3C2CCN3CC(C)(C)C(=O)O)NC(c2nccs2)=N[C@H]1c1cccc(F)c1C (some centres unmarked)
Completion: 7.15

====

experiment_description: Cytotoxicity determination in HepG2.2.15 cells (CCK-8 cell viability)
Assay type: cell-based
condition_notes: human, 6 days treatment, CCK-8 assay, highest concentration 100 uM
The following compounds are listed with their measured CC50 at 6 days values.
Write down the numeric answer in µM and omit the unit.

CCOC(=O)C1=C(CN2CC(F)(F)[C@@H]3[C@H]2CON3CC(C)(C)C(=O)O)NC(c2nccs2)=N[C@H]1c1cccc(F)c1C (single isomer, unassigned) [Compound 176]; 24.8

Prompt: Return reported CC50 at 6 days. Input compound: CCOC(=O)C1=C(CN2CC(F)(F)[C@@H]3C(=O)N(C[C@@H](C)C(=O)O)C[C@@H]32)NC(c2nccs2)=N[C@H]1c1cccc(F)c1C (single isomer, unassigned) [Compound 181A]
Completion: 52.9

====

experiment_description: Cytotoxicity determination in HepG2.2.15 cells (CCK-8 cell viability)
Type: cell-based
condition_notes: human, 6 days treatment, CCK-8 assay, highest concentration 100 uM
quantity: CC50 at 6 days (µM)
Write down the numeric answer in µM and omit the unit.

Prompt: Return reported CC50 at 6 days. Input compound: CCOC(=O)C1=C(CN2CC(F)(F)[C@@H]3[C@H]2CN(C(C)=O)N3CCC(C)(C)C(=O)O)NC(c2nccs2)=N[C@H]1c1ccc(F)c(F)c1F (single isomer, unassigned) [Compound 83A]
Completion: 73.5

Prompt: Return reported CC50 at 6 days. Input compound: CCOC(=O)C1=C(CN2CC(F)(F)[C@H]3[C@@H]2CCN3C[C@@H]2CC[C@@H]2C(=O)O)NC(c2nccs2)=N[C@H]1c1cccc(F)c1C (single isomer, unassigned) [Compound 130A]
Completion: 22.4

====

Tested on: HBV
experiment_description: Anti-HBV activity in HepG2.2.15 cells (HBV DNA in culture medium by qPCR)
Format: cell-based
condition_notes: Hepatitis B virus, HepG2.2.15, 144 h, HepG2.2.15 cells, 6 days treatment, HBV DNA in culture medium quantified by real-time PCR; read-out: EC50
The following molecules are listed with their measured pEC50 values.
Reminder that pEC50 means the negative base-10 logarithm of the concentration expressed in mol/L.

CCOC(=O)C1=C(CN2CC[C@]3(F)C(=O)N(CCC(C)(C)C(=O)O)C[C@H]23)NC(c2nccs2)=N[C@H]1c1cccc(F)c1C (single isomer, unassigned) [Compound 210B]; 7.01
CCOC(=O)C1=C(CN2CC(F)(F)[C@@H]3C(=O)N(CCC(C)(C)C(=O)O)C[C@@H]32)NC(c2nccs2)=N[C@H]1c1cccc(F)c1C (single isomer, unassigned); 7.92
CCOC(=O)C1=C(CN2CC(F)(F)[C@@H]3CN(CC(C)(C)C(=O)O)C(=O)[C@@H]32)NC(c2nccs2)=N[C@H]1c1cccc(F)c1C (single isomer, unassigned) [Compound 13B]; 8.46
COC(=O)C1=C(CN2CC(F)(F)[C@@H]3[C@H]2CN(C)N3CCC(C)(C)C(=O)O)NC(c2nccs2)=N[C@H]1c1ccc(F)c(F)c1Cl (single isomer, unassigned); 7.62

With those in mind, consider the next molecule.
Prompt: Under HBV: report pEC50 of CCOC(=O)C1=C(CN2CC(F)(F)[C@H]3[C@@H]2CCN3c2nc(C(=O)O)cs2)NC(c2nccs2)=N[C@H]1c1cccc(F)c1C (single isomer, unassigned) .
Completion: 7.62

====

experiment_description: Cytotoxicity determination in HepG2.2.15 cells (CCK-8 cell viability)
Format: cell-based
condition_notes: human, 6 days treatment, CCK-8 assay, highest concentration 100 uM
The following compounds are listed with their measured CC50 at 6 days values.
Write down the numeric answer in µM and omit the unit.

CCOC(=O)C1=C(CN2CC[C@]3(F)C(=O)N(CCC(C)(C)C(=O)O)C[C@H]23)NC(c2nccs2)=N[C@H]1c1cccc(F)c1C (single isomer, unassigned) [Compound 210B]; 48.7

With those in mind, consider the next compound.
Prompt: Return reported CC50 at 6 days. Input compound: CCOC(=O)C1=C(CN2CC[C@]3(F)CN(CC(C)(C)C(=O)O)C(=O)[C@H]23)NC(c2nccs2)=N[C@H]1c1cccc(F)c1C (single isomer, unassigned) [Compound 24A]
Completion: 48.5

====

experiment_description: Cytotoxicity determination in HepG2.2.15 cells (CCK-8 cell viability)
Type: cell-based
condition_notes: human, 6 days treatment, CCK-8 assay, highest concentration 100 uM
The following compounds are listed with their measured CC50 at 6 days values.

A selection of reference data follows.
COC(=O)C1=C(CN2CC(F)(F)[C@@H]3[C@H]2CON3CCC(C)(C)C(=O)O)NC(c2nccs2)=N[C@H]1c1cccc(F)c1F (single isomer, unassigned); > 100 µM
COC(=O)C1=C(CN2CC(F)(F)[C@@H]3[C@H]2CN(C(C)=O)N3CCC(C)(C)C(=O)O)NC(c2nccs2)=N[C@H]1c1ccc(F)c(F)c1Cl (single isomer, unassigned) [Compound 79A]; > 50 µM

With those in mind, consider the next compound.
Prompt: Return reported CC50 at 6 days. Input compound: CCOC(=O)C1=C(CN2CC(F)(F)[C@H]3[C@@H]2CN(C(C)=O)N3CCC(C)(C)C(=O)O)NC(c2nccs2)=N[C@H]1c1cccc(F)c1C [Compound 70A]
Completion: > 50 µM
